Cited source for all entries: BigSolDB 2.1

Conditions: in n-butanol, 318.15 K
result_type: solubility (mole fraction)
Please respond with just the number, no unit label.

Consider CC(C)OC(=O)[C@H](C)N[P@](=O)(Oc1ccccc1)Oc1c(F)c(F)c(F)c(F)c1F . Its measured solubility (mole fraction) is 0.00789

---

Conditions: in n-butanol, 298.15 K
result_type: solubility (mole fraction)
Format: numeric value only, no unit, no commentary.

Quick note, solubility (mole fraction) for CC(C)OC(=O)[C@H](C)N[P@](=O)(Oc1ccccc1)Oc1c(F)c(F)c(F)c(F)c1F landed at 0.00267

---

Details: in ethyl acetate, 308.15 K
result_type: solubility (mole fraction)
// keep it numeric: no unit symbol after the value

The reported value for CC(C)OC(=O)[C@H](C)N[P@](=O)(Oc1ccccc1)Oc1c(F)c(F)c(F)c(F)c1F in terms of solubility (mole fraction) is 0.0227

---

Settings: in ethanol, 288.15 K
result_type: solubility (mole fraction)
I'd appreciate a reply containing only the number, no unit.

Lab note: CC(C)OC(=O)[C@H](C)N[P@](=O)(Oc1ccccc1)Oc1c(F)c(F)c(F)c(F)c1F gave solubility (mole fraction) of 0.00293

---

Details: in methanol, 288.15 K
result_type: solubility (mole fraction)

Record CC(C)OC(=O)[C@H](C)N[P@](=O)(Oc1ccccc1)Oc1c(F)c(F)c(F)c(F)c1F . Reported solubility (mole fraction): 0.00347

---

Conditions: in acetone, 283.15 K
result_type: solubility (mole fraction)
The answer should be a number; do not append a unit.

The recorded solubility (mole fraction) for entry CC(C)OC(=O)[C@H](C)N[P@](=O)(Oc1ccccc1)Oc1c(F)c(F)c(F)c(F)c1F equals 0.0111

---

Conditions: in toluene, 308.15 K
result_type: solubility (mole fraction)
Could you respond with only the numeric value?

Just so you know, measured solubility (mole fraction) for CC(C)OC(=O)[C@H](C)N[P@](=O)(Oc1ccccc1)Oc1c(F)c(F)c(F)c(F)c1F came out at 0.0125

---

Conditions: in water, 288.15 K
result_type: solubility (mole fraction)
Number only, no unit.

Value of measured solubility (mole fraction) for the entry CC(C)OC(=O)[C@H](C)N[P@](=O)(Oc1ccccc1)Oc1c(F)c(F)c(F)c(F)c1F : 4.42e-05

---

Conditions: in methanol, 278.15 K
result_type: solubility (mole fraction)
Give only the figure.

The molecule listed as CC(C)OC(=O)[C@H](C)N[P@](=O)(Oc1ccccc1)Oc1c(F)c(F)c(F)c(F)c1F has a reported solubility (mole fraction) of 0.0023

---

Conditions: in toluene, 303.15 K
result_type: solubility (mole fraction)
In your answer, state the number alone without any accompanying words.

Per the records, this compound ( CC(C)OC(=O)[C@H](C)N[P@](=O)(Oc1ccccc1)Oc1c(F)c(F)c(F)c(F)c1F ) has solubility (mole fraction) equal to 0.0103

---

Details: in water, 303.15 K
result_type: solubility (mole fraction)
Write the value as a bare number.

For record CC(C)OC(=O)[C@H](C)N[P@](=O)(Oc1ccccc1)Oc1c(F)c(F)c(F)c(F)c1F the listed solubility (mole fraction) is 0.000106

---

Details: in n-butanol, 288.15 K
result_type: solubility (mole fraction)
Would you mind answering with just the numeric figure?

// recorded solubility (mole fraction) for CC(C)OC(=O)[C@H](C)N[P@](=O)(Oc1ccccc1)Oc1c(F)c(F)c(F)c(F)c1F : 0.00152

---

Details: in isopropanol, 283.15 K
result_type: solubility (mole fraction)
Give the figure by itself; no unit, no explanation.

molecule CC(C)OC(=O)[C@H](C)N[P@](=O)(Oc1ccccc1)Oc1c(F)c(F)c(F)c(F)c1F , solubility (mole fraction) observed: 0.00156

---

Settings: in n-butanol, 283.15 K
result_type: solubility (mole fraction)

Record CC(C)OC(=O)[C@H](C)N[P@](=O)(Oc1ccccc1)Oc1c(F)c(F)c(F)c(F)c1F . Reported solubility (mole fraction): 0.0011

---

Conditions: in acetonitrile, 313.15 K
result_type: solubility (mole fraction)

Item: CC(C)OC(=O)[C@H](C)N[P@](=O)(Oc1ccccc1)Oc1c(F)c(F)c(F)c(F)c1F | solubility (mole fraction): 0.0113

---

Conditions: in ethyl acetate, 288.15 K
result_type: solubility (mole fraction)
# answer = number (no unit)

What the record says about CC(C)OC(=O)[C@H](C)N[P@](=O)(Oc1ccccc1)Oc1c(F)c(F)c(F)c(F)c1F : solubility (mole fraction) is 0.0108

---

Conditions: in ethyl acetate, 303.15 K
result_type: solubility (mole fraction)

GET /value?item= CC(C)OC(=O)[C@H](C)N[P@](=O)(Oc1ccccc1)Oc1c(F)c(F)c(F)c(F)c1F &field=solubility (mole fraction) returns 0.0191

---

Conditions: in ethyl acetate, 293.15 K
result_type: solubility (mole fraction)
# respond with the number and nothing more

In plain terms, CC(C)OC(=O)[C@H](C)N[P@](=O)(Oc1ccccc1)Oc1c(F)c(F)c(F)c(F)c1F has a documented solubility (mole fraction) of 0.0132

---

Conditions: in ethanol, 308.15 K
result_type: solubility (mole fraction)
When you answer, write just the number.

Query CC(C)OC(=O)[C@H](C)N[P@](=O)(Oc1ccccc1)Oc1c(F)c(F)c(F)c(F)c1F yields solubility (mole fraction) of 0.00686

---

Conditions: in acetone, 318.15 K
result_type: solubility (mole fraction)
A bare number is all that is needed in reply.

Per the record, CC(C)OC(=O)[C@H](C)N[P@](=O)(Oc1ccccc1)Oc1c(F)c(F)c(F)c(F)c1F has solubility (mole fraction) of 0.0371

---

Details: in isopropanol, 303.15 K
result_type: solubility (mole fraction)
The reply should be a number, written without any unit.

Entry CC(C)OC(=O)[C@H](C)N[P@](=O)(Oc1ccccc1)Oc1c(F)c(F)c(F)c(F)c1F , solubility (mole fraction) reported as 0.00431

---

Conditions: in isopropanol, 298.15 K
result_type: solubility (mole fraction)

The reported value for CC(C)OC(=O)[C@H](C)N[P@](=O)(Oc1ccccc1)Oc1c(F)c(F)c(F)c(F)c1F in terms of solubility (mole fraction) is 0.00343

---

Details: in isopropanol, 293.15 K
result_type: solubility (mole fraction)
Please respond with just the number, no unit label.

Record summary for CC(C)OC(=O)[C@H](C)N[P@](=O)(Oc1ccccc1)Oc1c(F)c(F)c(F)c(F)c1F : reported solubility (mole fraction) = 0.00265

---

Details: in acetonitrile, 298.15 K
result_type: solubility (mole fraction)
The answer should be a number; do not append a unit.

Given item CC(C)OC(=O)[C@H](C)N[P@](=O)(Oc1ccccc1)Oc1c(F)c(F)c(F)c(F)c1F , the value recorded as its solubility (mole fraction) is 0.00653

---

Settings: in acetone, 288.15 K
result_type: solubility (mole fraction)

The value of solubility (mole fraction) measured for the molecule CC(C)OC(=O)[C@H](C)N[P@](=O)(Oc1ccccc1)Oc1c(F)c(F)c(F)c(F)c1F turned out to be 0.0132

---

Conditions: in methanol, 293.15 K
result_type: solubility (mole fraction)
Write the value as a bare number.

Briefly, solubility (mole fraction) measured for CC(C)OC(=O)[C@H](C)N[P@](=O)(Oc1ccccc1)Oc1c(F)c(F)c(F)c(F)c1F : 0.00423

---

Conditions: in toluene, 278.15 K
result_type: solubility (mole fraction)

Kindly note the recorded solubility (mole fraction) for CC(C)OC(=O)[C@H](C)N[P@](=O)(Oc1ccccc1)Oc1c(F)c(F)c(F)c(F)c1F , which is 0.00381

---

Conditions: in n-propanol, 298.15 K
result_type: solubility (mole fraction)
Give the figure only, with no unit attached.

# solubility (mole fraction) (compound: CC(C)OC(=O)[C@H](C)N[P@](=O)(Oc1ccccc1)Oc1c(F)c(F)c(F)c(F)c1F ) is 0.0039

---

Conditions: in n-propanol, 303.15 K
result_type: solubility (mole fraction)
Enter the number alone.

Query CC(C)OC(=O)[C@H](C)N[P@](=O)(Oc1ccccc1)Oc1c(F)c(F)c(F)c(F)c1F yields solubility (mole fraction) of 0.0049
